I'd be grateful if you could share measured shrunken log2 fold change for these entries.
tested on: Escherichia coli TOP10; assay: shrunken log2 fold change of peptide-encoding DNA abundance (4.5 h post-induction vs induction); higher = less antimicrobial activity (less host growth inhibition); details: time post-induction: 4.5 h; library: site-saturation at positions 5, 18, 19, 20;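 note: peptides expressed intracellularly from a pBAD plasmid library in pooled LB shake-flask culture, induced with 0.3% L-arabinose, DNA abundance read by NGS, three biological replicates, DESeq2 with apeglm shrinkage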

Problem: What value of measured shrunken log2 fold change is listed for `RRIRCRPPRLPRPRPRPPGYPRP` ?
Solution: 0.422

Problem: What value of measured shrunken log2 fold change is listed for `RRIRERPPRLPRPRPRPDDKPRP` ?
Solution: -0.433

Problem: What value of measured shrunken log2 fold change is listed for `RRIRSRPPRLPRPRPRPQHKPRP` ?
Solution: -0.131

Problem: What value of measured shrunken log2 fold change is listed for `RRIRHRPPRLPRPRPRPTGLPRP` ?
Solution: -0.515

Problem: What value of measured shrunken log2 fold change is listed for `RRIRPRPPRLPRPRPRPDQNPRP` ?
Solution: -0.065

Problem: What value of measured shrunken log2 fold change is listed for `RRIRWRPPRLPRPRPRPYYDPRP` ?
Solution: -0.262

Problem: What value of measured shrunken log2 fold change is listed for `RRIRKRPPRLPRPRPRPTNYPRP` ?
Solution: -0.114

Problem: What value of measured shrunken log2 fold change is listed for `RRIRFRPPRLPRPRPRPSIEPRP` ?
Solution: -0.342

Problem: What value of measured shrunken log2 fold change is listed for `RRIRQRPPRLPRPRPRPIRQPRP` ?
Solution: 0.0167

Problem: What value of measured shrunken log2 fold change is listed for `RRIRFRPPRLPRPRPRPSVVPRP` ?
Solution: -0.786

Problem: What value of measured shrunken log2 fold change is listed for `RRIRMRPPRLPRPRPRPQWVPRP` ?
Solution: 0.0772

Problem: What value of measured shrunken log2 fold change is listed for `RRIRMRPPRLPRPRPRPRNPPRP` ?
Solution: 3.17

Problem: What value of measured shrunken log2 fold change is listed for `RRIRNRPPRLPRPRPRPNKVPRP` ?
Solution: -0.642

Problem: What value of measured shrunken log2 fold change is listed for `RRIRPRPPRLPRPRPRPRWLPRP` ?
Solution: 0.299

Problem: What value of measured shrunken log2 fold change is listed for `RRIRIRPPRLPRPRPRPTFFPRP` ?
Solution: -0.292
